B1: LINE1-full (parent)
chain: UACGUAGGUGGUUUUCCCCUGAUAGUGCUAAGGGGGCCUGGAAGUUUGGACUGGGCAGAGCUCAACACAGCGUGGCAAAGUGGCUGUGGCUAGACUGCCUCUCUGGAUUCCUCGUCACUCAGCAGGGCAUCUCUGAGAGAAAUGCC

Variants of: B1
Assay: self-cleavage, relative activity (ratio to wild type); higher = more cleavage; in vitro, sequencing; the parent is a self-cleaving ribozyme
Records here are stratified by self-cleavage; strata: band 1 (below 0.6), band 2 (0.6 to below 1), band 3 (1 or more)

// below: answered variants
Prompt: Which category does the recorded self-cleavage put A31G G83A in?
Completion: band 2

Prompt: Quick one: G105A A142G
Completion: band 3

Prompt: For U143A C145U then?
Completion: band 3

Prompt: Further, for U23A U45A ?
Completion: band 3

More entries:
Prompt: For this variant, which bin applies? A79G A92U
Completion: band 2

Prompt: // same read-out, input: U46A U119A
Completion: band 3

Prompt: # repeat for A6U U96C
Completion: band 1

Prompt: Another: G8A C120U
Completion: band 3

Prompt: And what about the variant A2G U39C ?
Completion: band 1

Prompt: Now consider A77C U132C .
Completion: band 3

Prompt: Now consider A50C U73G and answer again.
Completion: band 2

Prompt: Check A64U A117U too.
Completion: band 1

Prompt: // next record A2U G122A
Completion: band 2

Prompt: How about U47A A92G ?
Completion: band 1

Prompt: Also need U13A A78G , thanks.
Completion: band 2

Prompt: Request: A67U C101A
Completion: band 1

Prompt: Also, U12A A22G please.
Completion: band 3

Prompt: Next entry: U108C A129U
Completion: band 3
